Listed here are compounds together with their documented Dmax.
# target.or.test.system: EGFR (Homo sapiens, UniProt P00533, DEL746-750)
# Construct: host or cells: HCC827
# Sequence (P00533 with tags, fused parts or gaps DEL746-750): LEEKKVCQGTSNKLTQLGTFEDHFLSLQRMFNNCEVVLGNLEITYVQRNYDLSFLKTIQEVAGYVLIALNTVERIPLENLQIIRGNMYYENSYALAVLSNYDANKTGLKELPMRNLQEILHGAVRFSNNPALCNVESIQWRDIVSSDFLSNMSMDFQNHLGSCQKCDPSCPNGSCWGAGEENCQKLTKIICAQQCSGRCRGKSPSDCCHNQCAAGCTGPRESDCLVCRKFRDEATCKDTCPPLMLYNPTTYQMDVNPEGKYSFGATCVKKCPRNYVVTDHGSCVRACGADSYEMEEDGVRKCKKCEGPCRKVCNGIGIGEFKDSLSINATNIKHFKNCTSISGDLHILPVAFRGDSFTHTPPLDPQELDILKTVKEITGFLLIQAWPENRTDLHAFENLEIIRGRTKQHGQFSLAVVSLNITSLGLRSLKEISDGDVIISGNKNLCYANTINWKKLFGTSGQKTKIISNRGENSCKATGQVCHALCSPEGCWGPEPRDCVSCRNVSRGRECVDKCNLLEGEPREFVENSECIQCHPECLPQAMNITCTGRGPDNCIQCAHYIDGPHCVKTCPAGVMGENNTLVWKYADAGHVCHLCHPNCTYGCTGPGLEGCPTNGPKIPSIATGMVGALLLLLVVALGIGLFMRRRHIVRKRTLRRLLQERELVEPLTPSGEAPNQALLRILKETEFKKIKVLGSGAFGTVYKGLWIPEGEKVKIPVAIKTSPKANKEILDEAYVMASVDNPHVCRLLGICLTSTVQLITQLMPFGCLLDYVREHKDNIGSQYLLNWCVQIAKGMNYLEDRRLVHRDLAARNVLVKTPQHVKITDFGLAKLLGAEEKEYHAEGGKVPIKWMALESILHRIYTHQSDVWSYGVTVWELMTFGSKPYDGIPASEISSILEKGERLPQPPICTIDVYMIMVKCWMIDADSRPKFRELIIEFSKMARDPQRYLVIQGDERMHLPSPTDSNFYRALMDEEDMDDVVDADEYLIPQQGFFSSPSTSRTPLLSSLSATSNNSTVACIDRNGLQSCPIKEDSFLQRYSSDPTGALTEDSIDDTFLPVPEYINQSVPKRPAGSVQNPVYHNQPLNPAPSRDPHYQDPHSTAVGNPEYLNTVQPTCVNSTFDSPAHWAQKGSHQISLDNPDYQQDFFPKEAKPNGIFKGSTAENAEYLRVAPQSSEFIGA
# test: EGFR PROTAC In Cell Western assay in HCC827
# Type: cell-based
# stated.conditions: HCC827, Table 4; HCC827, EGFR degradation, 16 hours of incubation

Some solved cases for reference:
INSERT INTO assay_data (compound, recorded_measurement) VALUES
  ('COc1cc(N2CCC(N3CCN(C(=O)CN4CCC(c5ccc(NC6CCC(=O)NC6=O)cc5)CC4)CC3)CC2)ccc1Nc1ncc(Cl)c(Nc2ccccc2C(C)=O)n1 (stereo not drawn)', '50 to 70%'),
  ('COc1cc(N2CCC(N3CCN(C(=O)CCCCN4CCC(c5ccc(NC6CCC(=O)NC6=O)cc5)CC4)CC3)CC2)ccc1Nc1ncc(Cl)c(Nc2ccccc2N(C)S(C)(=O)=O)n1 (stereo not drawn)', '< 50%');

Read the next record carefully.
Problem: I have this compound here, COc1cc(N2CC3(CN(C(=O)CN4CCC(c5ccc(NC6CCC(=O)NC6=O)cc5)CC4)C3)C2)ccc1Nc1ncc(Cl)c(Nc2ccccc2C(C)=O)n1 (stereo not drawn) , and I need its recorded Dmax.
Solution: < 50%

From: patent US20250129086A1
